# tgt: Fibrinogen beta chain (Homo sapiens)
# protocol_description: inhibitors of Tn6 peptide binding to fibrin DD(E), primary screen, biochemical, fluorescence polarization, human fibrin, Tn6 probe (AID 720509);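 further: 0% = median of all compound wells on the plate and 100% = blocking peptide control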
# condition_notes: Fibrin DD(E) TRITC-Tn6 fluorescence polarization displacement; at 8.3 µM; active compounds read high
About 760 (0.21%) of roughly 370,000 compounds were called active. The sample as a whole holds a higher share of actives than the screen did.
quantity: inhibition (%)
One number for each entry, in %.

Here are 3 compounds together with their reported answers.
Given `O=C(CSCc1ccc([N+](=O)[O-])cc1)NCCSCc1ccccc1` , state its recorded inhibition.
2.74

Given `O=C(CCN1C(=O)[C@H]2CC=CC[C@H]2C1=O)NCc1nc(-c2ccccc2)no1` , state its recorded inhibition.
1.52

Given C=C1CCC(N(O)c2cc(C)on2)C(=C)CCC2C1CC2(C)C (stereo not drawn) , state its recorded inhibition.
-5.24

For every item below, please supply its inhibition.
1. CCCCNC(=O)c1ccccc1NC(=O)c1ccccc1N(C)S(C)(=O)=O
2. COCCN(Cc1nc(-c2ccc(C(F)(F)F)cc2)no1)C(C)C
3. CCCCNC(=O)OC1CC2CC1[C@H]1CCCCN1C2=O (stereo partly drawn)

2.47
-5.72
-8.63

For every item below, please supply its inhibition.
1. C[C@H]([C@@H](O)[C@@H](O)[C@@H](C)C(C)(C)C)[C@H]1CC[C@H]2C3CC[C@H]4C[C@H](OS(=O)(=O)O)[C@@H](OS(=O)(=O)O)C[C@]4(C)[C@H]3CC[C@]12C (stereo partly drawn)
2. O=C(NCC(F)(F)F)c1ccc(S(=O)(=O)NCCc2ccc3c(c2)OCCO3)cc1

[3.35, 0.28]

###

# tgt: Fibrinogen beta chain (Homo sapiens) (UniProt P02675)
# Sequence (P02675 whole entry, looked up): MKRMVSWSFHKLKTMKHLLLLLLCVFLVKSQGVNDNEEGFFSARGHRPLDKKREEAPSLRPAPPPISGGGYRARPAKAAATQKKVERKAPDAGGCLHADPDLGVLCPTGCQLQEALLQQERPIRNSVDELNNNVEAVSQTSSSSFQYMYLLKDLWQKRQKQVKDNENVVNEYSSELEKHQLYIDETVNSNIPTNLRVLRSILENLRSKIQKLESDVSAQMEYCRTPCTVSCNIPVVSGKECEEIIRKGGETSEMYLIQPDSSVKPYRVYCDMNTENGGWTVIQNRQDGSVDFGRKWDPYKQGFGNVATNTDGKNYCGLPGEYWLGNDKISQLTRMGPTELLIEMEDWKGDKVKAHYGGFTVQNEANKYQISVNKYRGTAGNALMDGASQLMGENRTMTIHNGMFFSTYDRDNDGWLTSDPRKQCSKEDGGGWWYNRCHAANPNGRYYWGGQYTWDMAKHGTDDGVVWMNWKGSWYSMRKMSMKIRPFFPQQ
# protocol_description: inhibitors of Tn6 peptide binding to fibrin DD(E), primary screen, biochemical, fluorescence polarization, human fibrin, Tn6 probe (AID 720509);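 further: 0% = median of all compound wells on the plate and 100% = blocking peptide control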
# condition_notes: Fibrin DD(E) TRITC-Tn6 fluorescence polarization displacement; at 8.3 µM
Among all 370,000 compounds or so, about 760 (0.21%) were called active.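 Rule for the calls: active = inhibition above a per-campaign cutoff: mean of compounds within control limits plus 3 SD (cut at about 15% in these data); inactive = the rest.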 This is one part of a sample in which actives are shown more often than they occur.
In this exercise, the only acceptable responses are True (active), False (inactive)

See these solved cases before continuing.
Which outcome was entered for the molecule COC(=O)C1CN(Cc2cn(Cc3ccc(F)cc3)nn2)CCS(=O)(=O)N1Cc1ccc(Cl)cc1 (centres undefined) in this test?
False

Which outcome was entered for the molecule `CCOc1cccc(-c2nnc(SCC(=O)NC3CC3)n2C)c1` in this test?
False

Which outcome was entered for the molecule `COc1cc(C(=S)N2CCOCC2)cc(OC)c1OC(=O)c1cc([N+](=O)[O-])c(C)c([N+](=O)[O-])c1` in this test?
False

Which outcome was entered for the molecule `C[C@@H]1CN([C@H](C)CO)C(=O)CCCn2cc(nn2)CO[C@H]1CN(C)S(=O)(=O)c1ccc(Oc2ccccc2)nc1` in this test?
False

Which outcome was entered for the molecule `Cc1ccc(-c2nc(C)sc2CC(=O)OCC(=O)Nc2c(F)cccc2F)cc1` in this test?
False

More entries:
Which outcome was entered for the molecule `CCc1cccc(CC)c1NC(=O)COc1ccccc1C(=O)c1cc(C#N)c(=O)n(C2CCCCC2)c1` in this test?
False

Which outcome was entered for the molecule `Cn1c(SCC(=O)NC2CCCCC2)nnc1-c1ccc(N)cc1` in this test?
False

Which outcome was entered for the molecule `CCc1cc(-c2nnc(SCC(=O)NC3CC3)n2C)cs1` in this test?
True

Which outcome was entered for the molecule COc1c(C)cc(C(O)c2ncc(-c3cccc(C(F)(F)F)c3)[nH]2)cc1C (centres undefined) in this test?
False
